Molecular target: T1, Bre1-LR K534E (budding yeast, UniProt Q07457 227-700, K534E)
T1 construct: source: E. coli BL21 Rosetta (DE3), purified (Ni-NTA, heparin, gel filtration)
T1 sequence (looked up): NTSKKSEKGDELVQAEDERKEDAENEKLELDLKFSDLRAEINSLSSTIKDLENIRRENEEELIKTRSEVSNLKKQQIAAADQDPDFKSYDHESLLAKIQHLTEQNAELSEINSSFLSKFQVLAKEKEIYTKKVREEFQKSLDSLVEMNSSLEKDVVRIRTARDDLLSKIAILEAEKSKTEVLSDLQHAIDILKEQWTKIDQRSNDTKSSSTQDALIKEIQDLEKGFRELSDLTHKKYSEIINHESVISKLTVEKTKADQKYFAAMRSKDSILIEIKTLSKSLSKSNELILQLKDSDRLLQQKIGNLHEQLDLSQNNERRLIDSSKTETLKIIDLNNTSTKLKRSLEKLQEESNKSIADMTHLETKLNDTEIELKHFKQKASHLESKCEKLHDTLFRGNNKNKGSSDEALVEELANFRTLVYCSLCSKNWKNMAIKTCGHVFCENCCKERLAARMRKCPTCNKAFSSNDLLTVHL
Assay: SPR; Lge1-CT immobilised on a CM5 chip, Bre1-LR flown over; Biacore 8K, 25°C, 20 mM HEPES (pH 7.5), 200 mM sodium chloride, 0.02% Tween 20
Details: both partners purified
pKd: −log10 of the molar value.
result_type: pKd

Lge1-CT (Lge1 residues 261–332), intein-chitin binding domain (CBD) tag construct (domain or fragment, budding yeast, UniProt Q02796 261-332, looked up, Lge1, budding yeast, residues 261-332; residues 268–331 resolved in the electron density; the intein-CBD tag is named on the protein in the pull-down; also called intein-CBD-fused Lge1-CT; intein-CBD-tagged Lge1-CT; source: E. coli BL21 Rosetta (DE3): cleared cell extract on chitin resin (pull-down); purified (chitin, heparin, gel filtration) for ITC and SPR; co-purified with Bre1-LR for the …) KNVKKTNNTESECEKAREVFKESDSIDSALEELNLKINSNELELRLLNNQCDKHALNIQLTQEKLDSLLLMQ
7.71
